# credit: patent US20250197408A1

Assay: Solubility in 7 aqueous pH buffers and bio-relevant fluids at 37° C. (HPLC of supernatant; residual solids by XRPD)
Format: physicochemical
Conditions: ES5, SGF, pH 2.0, 37° C., 2 h
metric: pH of supernatant, solubility for 2 h (pH)

compound	reportedMeasurement
C=CC(=O)NCC(=O)N1CCN(Cc2cc3c(N4CCOCC4)nc(-c4cnc(NC(=O)OC)cc4C(F)(F)F)nn3c2)CC1.O=P(O)(O)O [Form A* of Compound I phosphate salt]	(1.9)
C=CC(=O)NCC(=O)N1CCN(Cc2cc3c(N4CCOCC4)nc(-c4cnc(NC(=O)OC)cc4C(F)(F)F)nn3c2)CC1 [Form A of Compound I]	(2.0)
C=CC(=O)NCC(=O)N1CCN(Cc2cc3c(N4CCOCC4)nc(-c4cnc(NC(=O)OC)cc4C(F)(F)F)nn3c2)CC1.O=C(O)/C=C\C(=O)O [Form B* of Compound I maleate salt]	(2.0)
C=CC(=O)NCC(=O)N1CCN(Cc2cc3c(N4CCOCC4)nc(-c4cnc(NC(=O)OC)cc4C(F)(F)F)nn3c2)CC1.O=S(=O)(O)c1ccccc1	(2.0)

###

Assay: Dynamic vapor sorption (DVS) analysis at 25° C.
Format: physicochemical
metric: hygroscopicity / water sorption behavior (DVS)

compound	reportedMeasurement
C=CC(=O)NCC(=O)N1CCN(Cc2cc3c(N4CCOCC4)nc(-c4cnc(NC(=O)OC)cc4C(F)(F)F)nn3c2)CC1 [Form A of Compound I]	slightly hygroscopic
C=CC(=O)NCC(=O)N1CCN(Cc2cc3c(N4CCOCC4)nc(-c4cnc(NC(=O)OC)cc4C(F)(F)F)nn3c2)CC1.O=S(=O)(O)c1ccccc1	slightly hygroscopic

###

Test system: NCI-H1792 (Lung)
Assay: Cell proliferation assay (CellTiter-Glo, 3 days treatment), NCI-H1792
Format: cell-based
Details: Homo sapiens, 72 h, read-out: Absolute IC50
metric: IC50

> print(dat)
                                   molecule  metric  reportedmeasurement
1  C=CC(=O)NCC(=O)N1CCN(Cc2cc3c(N4CCOCC4)nc(-c4cnc(NC(=O)OC)cc4C(F)(F)F)nn3c2)CC1 [Compound I]    IC50              > 10 µM

###

Assay: Solubility in 7 aqueous pH buffers and bio-relevant fluids at 37° C. (HPLC of supernatant; residual solids by XRPD)
Type: physicochemical
Settings: ES6, FaSSIF-v1, pH 6.5, 37° C., 2 h
metric: pH of supernatant, solubility for 2 h (pH)

compound	reportedMeasurement
C=CC(=O)NCC(=O)N1CCN(Cc2cc3c(N4CCOCC4)nc(-c4cnc(NC(=O)OC)cc4C(F)(F)F)nn3c2)CC1.O=S(=O)(O)c1ccccc1	(6.3)
C=CC(=O)NCC(=O)N1CCN(Cc2cc3c(N4CCOCC4)nc(-c4cnc(NC(=O)OC)cc4C(F)(F)F)nn3c2)CC1 [Form A of Compound I]	(6.5)
C=CC(=O)NCC(=O)N1CCN(Cc2cc3c(N4CCOCC4)nc(-c4cnc(NC(=O)OC)cc4C(F)(F)F)nn3c2)CC1.O=C(O)/C=C\C(=O)O [Form B* of Compound I maleate salt]	(6.1)
C=CC(=O)NCC(=O)N1CCN(Cc2cc3c(N4CCOCC4)nc(-c4cnc(NC(=O)OC)cc4C(F)(F)F)nn3c2)CC1.O=P(O)(O)O [Form A* of Compound I phosphate salt]	(6.2)

###

Tested on: NCI-H2122 (Lung)
Experiment: Cell proliferation assay (CellTiter-Glo, 3 days treatment), NCI-H2122
Type: cell-based
Settings: Homo sapiens, 72 h, read-out: Absolute IC50
metric: IC50 (µM)

> print(dat)
                                   compound  reportedmeasurement
1  C=CC(=O)NCC(=O)N1CCN(Cc2cc3c(N4CCOCC4)nc(-c4cnc(NC(=O)OC)cc4C(F)(F)F)nn3c2)CC1 [Compound I]                 3.77

###

Test system: SW837 (Rectum)
Test: Cell proliferation assay (CellTiter-Glo, 3 days treatment), SW837
Format: cell-based
Conditions: read-out: Absolute IC50
Description: The cell lines tested included as follows: UM-UC-3 (bladder), KYSE-410 (HN/Esophagus), SW1463 (rectum), Calu-1 (Lung), NCI-H358 (Lung), SW837 (Rectum), SW756 (Cervix), NCI-H2122 (Lung), NCI-H1373 (Lung), NCI-H1792 (Lung), NCI-H23 (Lung), MIA PaCa-2 (Pancreas), and HC44. Cells were recovered and maintained in appropriate culture media. […] The cells were then resuspended and counted using a Vi cell counter (The cell viability be measured by trypan blue exclusion assay.). […]
metric: IC50 (µM)

> print(dat)
                                   molecule  reportedmeasurement
1  N.N.[Cl][Pt][Cl] [cisplatin, reference compound]                 42.5

###

System: NCI-H1373 (Lung)
Experiment: Cell proliferation assay (CellTiter-Glo, 3 days treatment), NCI-H1373
Type: cell-based
Conditions: Homo sapiens, 72 h, read-out: Absolute IC50
metric: IC50

> print(dat)
                                   compound    measuredtarget  metric  reportedmeasurement
1  C=CC(=O)NCC(=O)N1CCN(Cc2cc3c(N4CCOCC4)nc(-c4cnc(NC(=O)OC)cc4C(F)(F)F)nn3c2)CC1 [Compound I]  NCI-H1373 (Lung)    IC50              > 10 µM

###

Test: Solubility in 7 aqueous pH buffers and bio-relevant fluids at 37° C. (HPLC of supernatant; residual solids by XRPD)
Format: physicochemical
Conditions: ES7, FeSSIF-v1, pH 5.0, 37° C., 24 h
metric: pH of supernatant, solubility for 24 h (pH)

molecule	reportedMeasurement
C=CC(=O)NCC(=O)N1CCN(Cc2cc3c(N4CCOCC4)nc(-c4cnc(NC(=O)OC)cc4C(F)(F)F)nn3c2)CC1 [Form A of Compound I]	(5.0)
C=CC(=O)NCC(=O)N1CCN(Cc2cc3c(N4CCOCC4)nc(-c4cnc(NC(=O)OC)cc4C(F)(F)F)nn3c2)CC1.O=S(=O)(O)c1ccccc1	(4.9)
C=CC(=O)NCC(=O)N1CCN(Cc2cc3c(N4CCOCC4)nc(-c4cnc(NC(=O)OC)cc4C(F)(F)F)nn3c2)CC1.O=C(O)/C=C\C(=O)O [Form B* of Compound I maleate salt]	(5.0)
C=CC(=O)NCC(=O)N1CCN(Cc2cc3c(N4CCOCC4)nc(-c4cnc(NC(=O)OC)cc4C(F)(F)F)nn3c2)CC1.O=P(O)(O)O [Form A* of Compound I phosphate salt]	(4.9)

###

Test system: MIA PaCa-2 (Pancreas)
Test: Cell proliferation assay (CellTiter-Glo, 3 days treatment), MIA PaCa-2
Assay type: cell-based
Details: Homo sapiens, 72 h, read-out: Absolute IC50
metric: IC50

> print(dat)
                               samplesmiles  metric  reportedmeasurement
1  C=CC(=O)NCC(=O)N1CCN(Cc2cc3c(N4CCOCC4)nc(-c4cnc(NC(=O)OC)cc4C(F)(F)F)nn3c2)CC1    IC50              > 10 µM

###

Test: Solubility in 7 aqueous pH buffers and bio-relevant fluids at 37° C. (HPLC of supernatant; residual solids by XRPD)
Type: physicochemical
Conditions: ES2, pH 4.5 acetate buffer (50 mM), 37° C., 24 h
metric: pH of supernatant, solubility for 24 h (pH)

compound	reportedMeasurement
C=CC(=O)NCC(=O)N1CCN(Cc2cc3c(N4CCOCC4)nc(-c4cnc(NC(=O)OC)cc4C(F)(F)F)nn3c2)CC1.O=P(O)(O)O [Form A* of Compound I phosphate salt]	(4.4)
C=CC(=O)NCC(=O)N1CCN(Cc2cc3c(N4CCOCC4)nc(-c4cnc(NC(=O)OC)cc4C(F)(F)F)nn3c2)CC1 [Form A of Compound I]	(4.4)
C=CC(=O)NCC(=O)N1CCN(Cc2cc3c(N4CCOCC4)nc(-c4cnc(NC(=O)OC)cc4C(F)(F)F)nn3c2)CC1.O=S(=O)(O)c1ccccc1	(4.4)
C=CC(=O)NCC(=O)N1CCN(Cc2cc3c(N4CCOCC4)nc(-c4cnc(NC(=O)OC)cc4C(F)(F)F)nn3c2)CC1.O=C(O)/C=C\C(=O)O [Form B* of Compound I maleate salt]	(4.5)

###

Assay: Solubility in 7 aqueous pH buffers and bio-relevant fluids at 37° C. (HPLC of supernatant; residual solids by XRPD)
Type: physicochemical
Details: aqueous buffer, thermodynamic from solid; ES3, pH 6.8 phosphate buffer (50 mM), 37° C., 24 h
metric: solubility at 24 h (µg/mL)

> print(dat)
                                   compound  reportedmeasurement
1  C=CC(=O)NCC(=O)N1CCN(Cc2cc3c(N4CCOCC4)nc(-c4cnc(NC(=O)OC)cc4C(F)(F)F)nn3c2)CC1 [Form A of Compound I]                  5.1
